- study.target: α-melanocyte-stimulating hormone receptor (hMC4R) (Homo sapiens (Human), UniProt P32245)
- Sequence (P32245 whole entry): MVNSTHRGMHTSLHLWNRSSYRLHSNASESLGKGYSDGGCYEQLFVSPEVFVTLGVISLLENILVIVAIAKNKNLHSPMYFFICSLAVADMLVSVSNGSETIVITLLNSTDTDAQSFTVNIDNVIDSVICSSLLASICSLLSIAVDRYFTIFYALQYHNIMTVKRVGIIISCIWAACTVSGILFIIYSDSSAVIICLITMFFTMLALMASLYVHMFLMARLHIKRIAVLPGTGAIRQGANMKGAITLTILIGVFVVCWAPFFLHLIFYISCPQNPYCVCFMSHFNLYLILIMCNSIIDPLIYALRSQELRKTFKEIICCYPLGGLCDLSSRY
- experiment.summary: In vitro binding affinity assay using hMC4R (radioligand competition binding, [125I]-(Nle4, D-Phe7)-α-MSH)
- protocol.conditions: geometric mean, read-out: Ki (nM) geometric
- Procedure: The binding affinity of test compounds at the α-melanocyte-stimulating hormone receptor (hMC4R) was assessed using a radioligand competition binding assay. […] Compounds were solubilized in 100% dimethyl sulfoxide (DMSO) to a concentration of 30 mM. […] The exact concentration of radioligand used for each experiment was determined by liquid scintillation counting and adjusted if necessary. […] The raw data (expressed as counts per minute) were analyzed using ActivityBase (IDBS Data Management Software). […]
measured.parameter: Ki (nM)

Solved cases below.
{"compound": "COc1cc([C@@H](C)C(=O)N2CC[C@@]3(CCc4cc(-c5cccc(-c6nnc(C)o6)n5)c(C)nc4N3)C2)c(F)cn1", "measurement.units": "nM", "Ki": 2.5}
{"compound": "COc1cc([C@@H](C)C(=O)N2CC[C@@]3(CCc4cc(-c5nc(C(F)F)n(C)n5)c(C)nc4N3)C2)c(F)cn1", "measurement.units": "nM", "Ki": 0.49}
{"compound": "Cc1nc2c(cc1-c1nnn(C)n1)CC[C@@]1(CCN(C(=O)[C@H](C)c3ccc(OC(F)F)nc3)C1)N2 (single isomer, unassigned)", "measurement.units": "nM", "Ki": 57}

(A) Cc1nc2c(cc1-c1ncccn1)CC[C@@]1(CCN(C(=O)C(C)c3ccnc(OC(F)F)c3)C1)N2 (single isomer, unassigned)
(B) COc1cc([C@@H](C)C(=O)N2CC[C@@]3(CCc4cc(-c5cnc(C(F)(F)F)nc5)c(C)nc4N3)C2)c(F)cn1
Hello, I am sorting some records. Could you say if A or B has the smaller Ki value? State the label of the item chosen. B
(B: 43 nM, A: 92 nM)

(1) Cc1nc2c(cc1-c1ncccn1)CC[C@@]1(CCN(C(=O)C(C)c3ccc(F)cc3F)C1)N2 (single isomer, unassigned)
(2) COc1cc(C(C)C(=O)N2CC[C@@]3(CCc4cc(-c5ncccn5)c(C)nc4N3)C2)cc(OC(F)F)n1 (single isomer, unassigned)
(3) COc1cc([C@@H](C)C(=O)N2CC[C@@]3(CCc4cc(-c5nnn(C)n5)c(C)nc4N3)C2)nc(C(F)F)n1 (single isomer, unassigned)
(4) COc1cc([C@@H](C)C(=O)N2CC[C@@]3(CCc4cc(-c5cnc(C)nc5)c(C)nc4N3)C2)c(F)cn1
Number of compounds to sort: 4. Sort criterion: Ki, ascending. Provide the labels, sequenced as the question asks. 2, 3, 1, 4

(a) COc1cc([C@@H](C)C(=O)N2CC[C@@]3(CCc4cc(-c5ncc(Cl)cn5)c(C)nc4N3)C2)c(F)cn1
(b) COc1cc([C@@H](C)C(=O)N2CC[C@@]3(CCc4cc(-c5ccc(OC(F)F)nc5)c(C)nc4N3)C2)c(F)cn1
(c) COc1cc([C@@H](C)C(=O)N2CC[C@@]3(CCc4cc(Cl)c(C)nc4N3)C2)c(F)cn1 (single isomer, unassigned)
Could you please sort these 3 entries by Ki from high to low? Provide the labels, sequenced as the question asks. c, b, a
(c: 110 nM, b: 18 nM, a: 2 nM)
